- Test Name: stability 90 C., 20 min (V, BP, TW, BS) of hydrocodone conjugates
- Measurement Setup: BS (abbreviation not defined)
Property Name: stability 90 C., 20 min BS
One number for each entry.

{"Compound": "CC[C@H](C)[C@H](NC(=O)[C@H](CCCCN)NC(=O)[C@@H](N)CCCCN)C(=O)OC1=CCC2[C@H]3Cc4ccc(OC)c5c4[C@@]2(CCN3C)C1O5 (stereo partly drawn) [Lys-Lys-Ile-HC]", "stability 90 C., 20 min BS": 97}

Report stability 90 C., 20 min BS for each item below.
1. COc1ccc2c3c1OC1C(OC(=O)[C@H](CC(C)C)NC(=O)[C@@H]4CCCN4C(=O)[C@@H]4CCCN4)=CCC4[C@@H](C2)N(C)CC[C@]314 (stereo partly drawn) [Pro-Pro-Leu-HC]
2. CC[C@H](C)[C@H](NC(=O)[C@H](Cc1ccc(O)cc1)NC(=O)[C@@H](N)Cc1ccc(O)cc1)C(=O)OC1=CCC2[C@H]3Cc4ccc(OC)c5c4[C@@]2(CCN3C)C1O5 (stereo partly drawn) [Tyr-Tyr-Ile-HC]

stdout:
100
100

---

- Test Name: Oral bioavailability of hydrocodone conjugates (plasma hydrocodone plus hydromorphone)
- Measurement Setup: oral, rats; relative to hydrocodone
Residues, ends and D or L forms follow the SMILES beside them. *: point of attachment. X1 = COc1ccc2c3c1OC1C(O*)=CCC4[C@@H](C2)N(C)CC[C@]314
Property Name: bioavailabiltty (% HC) oral Cmax
Numbers only, in % HC.

{"Compound": "COc1ccc2c3c1OC1C(OC(=O)[C@H](Cc4ccccc4)NC(=O)CNC(=O)CNC(=O)[C@H](CCC(=O)O)NC(=O)[C@@H](N)CCC(=O)O)=CCC4[C@@H](C2)N(C)CC[C@]314 (some centres unmarked) [Glu2-Gly2-Phe-HC] (H-EEGGF-X1)", "bioavailabiltty (% HC) oral Cmax": 112}
{"Compound": "CC[C@H](C)[C@H](NC(=O)[C@@H]1CCCN1C(=O)[C@@H]1CCCN1C(=O)[C@H](Cc1ccc(O)cc1)NC(=O)[C@@H](N)Cc1ccc(O)cc1)C(=O)OC1=CCC2[C@H]3Cc4ccc(OC)c5c4[C@@]2(CCN3C)C1O5 (some centres unmarked) [Tyr2-Pro2-Ile-HC] (H-YYPPI-X1)", "bioavailabiltty (% HC) oral Cmax": 213}
{"Compound": "CC[C@H](C)[C@H](NC(=O)CNC(=O)CNC(=O)[C@H](CCC(=O)O)NC(=O)[C@@H](N)CCC(=O)O)C(=O)OC1=CCC2[C@H]3Cc4ccc(OC)c5c4[C@@]2(CCN3C)C1O5 (some centres unmarked) [Glu2-Gly2-Ile-HC, Glu2-Gly2-Ile-Hydrocodone] (H-EEGGI-X1)", "bioavailabiltty (% HC) oral Cmax": 77}
{"Compound": "CC[C@H](C)[C@H](NC(=O)[C@H](CCCCN)NC(=O)[C@@H](N)CCCCN)C(=O)OC1=CCC2[C@H]3Cc4ccc(OC)c5c4[C@@]2(CCN3C)C1O5 (some centres unmarked)", "bioavailabiltty (% HC) oral Cmax": 76}
{"Compound": "CC[C@H](C)[C@H](NC(=O)[C@H](CC(=O)O)NC(=O)[C@H](CC(=O)O)NC(=O)[C@H](CCCCN)NC(=O)[C@@H](N)CCCCN)C(=O)OC1=CCC2[C@H]3Cc4ccc(OC)c5c4[C@@]2(CCN3C)C1O5 (some centres unmarked) [Lys2-Asp2-Ile-HC] (H-KKDDI-X1)", "bioavailabiltty (% HC) oral Cmax": 121}
{"Compound": "CC[C@H](C)[C@H](NC(=O)[C@@H]1CCCN1C(=O)[C@@H]1CCCN1C(=O)[C@H](CCCCN)NC(=O)[C@@H](N)CCCCN)C(=O)OC1=CCC2[C@H]3Cc4ccc(OC)c5c4[C@@]2(CCN3C)C1O5 (some centres unmarked) [Lys2-Pro2-Ile-HC] (H-KKPPI-X1)", "bioavailabiltty (% HC) oral Cmax": 76}
{"Compound": "CC[C@H](C)[C@H](NC(=O)[C@H](CC(C)C)NC(=O)[C@@H]1CCCN1)C(=O)OC1=CCC2[C@H]3Cc4ccc(OC)c5c4[C@@]2(CCN3C)C1O5 (some centres unmarked)", "bioavailabiltty (% HC) oral Cmax": 172}
{"Compound": "CC[C@H](C)[C@H](NC(=O)[C@H](CC(=O)O)NC(=O)[C@H](CC(=O)O)NC(=O)[C@H](CCC(=O)O)NC(=O)[C@@H](N)CCC(=O)O)C(=O)OC1=CCC2[C@H]3Cc4ccc(OC)c5c4[C@@]2(CCN3C)C1O5 (some centres unmarked) [Glu2-Asp2-Ile-HC] (H-EEDDI-X1)", "bioavailabiltty (% HC) oral Cmax": 129}
{"Compound": "CC[C@H](C)[C@H](NC(=O)[C@@H]1CCCN1)C(=O)N[C@H](C(=O)OC1=CCC2[C@H]3Cc4ccc(OC)c5c4[C@@]2(CCN3C)C1O5)[C@@H](C)CC (some centres unmarked)", "bioavailabiltty (% HC) oral Cmax": 99}
{"Compound": "CC[C@H](C)[C@H](NC(=O)[C@H](CCC(=O)O)NC(=O)[C@H](CCC(=O)O)NC(=O)CNC(=O)CN)C(=O)OC1=CCC2[C@H]3Cc4ccc(OC)c5c4[C@@]2(CCN3C)C1O5 (some centres unmarked) [Gly2-Glu2-Ile-HC] (H-GGEEI-X1)", "bioavailabiltty (% HC) oral Cmax": 119}

I'm hoping you can list bioavailabiltty (% HC) oral Cmax for every compound here, please.
1. COc1ccc2c3c1OC1C(OC(=O)[C@H](Cc4ccccc4)NC(=O)[C@@H]4CCCN4C(=O)[C@@H](N)CC(C)C)=CCC4[C@@H](C2)N(C)CC[C@]314 (some centres unmarked)
2. CC[C@H](C)[C@H](NC(=O)[C@H](Cc1ccccc1)NC(=O)[C@H](Cc1ccccc1)NC(=O)[C@H](Cc1ccc(O)cc1)NC(=O)[C@@H](N)Cc1ccc(O)cc1)C(=O)OC1=CCC2[C@H]3Cc4ccc(OC)c5c4[C@@]2(CCN3C)C1O5 (some centres unmarked) [Tyr2-Phe2-Ile-HC] (H-YYFFI-X1)
3. COc1ccc2c3c1OC1C(OC(=O)[C@H](CC(C)C)NC(=O)[C@@H]4CCCN4C(=O)[C@@H]4CCCN4)=CCC4[C@@H](C2)N(C)CC[C@]314 (some centres unmarked)

stdout:
125
63
108

stdin: Given the entry CC[C@H](C)[C@H](NC(=O)[C@H](Cc1ccccc1)NC(=O)[C@H](Cc1ccccc1)NC(=O)[C@H](CCC(=O)O)NC(=O)[C@@H](N)CCC(=O)O)C(=O)OC1=CCC2[C@H]3Cc4ccc(OC)c5c4[C@@]2(CCN3C)C1O5 (some centres unmarked) [Glu2-Phe2-Ile-HC] (H-EEFFI-X1) , report its measured bioavailabiltty (% HC) oral Cmax.
stdout: 129
